Assay: Lipophilicity, log D of compound at 7.4 by LC-MS analysis
Assay type: physicochemical
Conditions: pH 7.4
I'd be grateful if you could share measured logD for these entries.
Provide a numeric answer; units are not to be included.

query: Fill blank: measured logD of the compound FC(F)(F)c1nccc(NC2CCN(c3ccc4nnc(Cl)n4n3)CC2)n1 is ____.
result: 2.6

query: Do the same for FC(F)(F)c1cccc(N[C@H]2CC[C@@H](Nc3ccc4nnc(Cl)n4n3)CC2)c1 please
result: 5.2

query: Do the same for FC(F)(F)c1nccc(N[C@H]2CC[C@@H](Nc3ccc4nncn4n3)CC2)n1 please
result: 1.7

query: Do the same for FC(F)(F)c1nccc(NC[C@H]2C[C@@H](Nc3ccc4nnc(Cl)n4n3)C2)n1 please
result: 2.5

query: Do the same for FC(F)(F)c1nccc(N[C@H]2C[C@@H](CNc3ccc4nnc(Cl)n4n3)C2)n1 please
result: 2.5

###

I'd be grateful if you could share measured microsomal CLint for these entries.
Test: Metabolic stability in human liver microsomes assessed as intrinsic clearance by LC-MS/MS analysis
Type: ADME, Microsome
Settings: read-out: CLH

query: Fill blank: measured microsomal CLint of the molecule Cc1nnc2ccc(N[C@H]3CC[C@@H](Nc4ccnc(C(F)(F)F)n4)CC3)nn12 is ____.
result: < 3 µL/min/mg

query: Do the same for FC(F)(F)c1nccc(NCC2CCN(c3ccc4nnc(Cl)n4n3)CC2)n1 please
result: 31 µL/min/mg

query: Do the same for COc1ncc(N[C@H]2CC[C@@H](Nc3ccc4nnc(Cl)n4n3)CC2)cc1Cl please
result: < 3 µL/min/mg

query: Do the same for FC(F)(F)c1nccc(N[C@@H]2CC[C@H](Nc3ccc4nnc(Cl)n4n3)C2)n1 (racemic) please
result: 17 µL/min/mg

###

Experiment: Lipophilicity, log D of compound at 7.4 by LC-MS analysis
Type: physicochemical
Settings: pH 7.4
observationType: logD

query: Fill blank: measured logD of the molecule FC(F)(F)c1nccc(N[C@H]2CC[C@@H](Nc3ccc4nnc(C(F)(F)F)n4n3)CC2)n1 is ____.
result: 3.8

query: Do the same for Nc1nnc2ccc(N[C@H]3CC[C@@H](Nc4ccnc(C(F)(F)F)n4)CC3)nn12 please
result: 1.4

query: Do the same for FC(F)(F)c1nccc(N[C@]23CC[C@](Nc4ccc5nnc(Cl)n5n4)(CC2)CC3)n1 please
result: 3

query: Do the same for FC(F)(F)c1cc(N[C@H]2CC[C@@H](Nc3ccc4nnc(Cl)n4n3)CC2)ccn1 please
result: 2.9

query: Do the same for FC(F)(F)c1nccc(N[C@H]2CC[C@@H](Nc3ccc4cnccc4n3)CC2)n1 please
result: 2.8

###

Biological target: Cytochrome P450 2C19 (Homo sapiens, UniProt P33261)
Sequence (P33261 whole entry): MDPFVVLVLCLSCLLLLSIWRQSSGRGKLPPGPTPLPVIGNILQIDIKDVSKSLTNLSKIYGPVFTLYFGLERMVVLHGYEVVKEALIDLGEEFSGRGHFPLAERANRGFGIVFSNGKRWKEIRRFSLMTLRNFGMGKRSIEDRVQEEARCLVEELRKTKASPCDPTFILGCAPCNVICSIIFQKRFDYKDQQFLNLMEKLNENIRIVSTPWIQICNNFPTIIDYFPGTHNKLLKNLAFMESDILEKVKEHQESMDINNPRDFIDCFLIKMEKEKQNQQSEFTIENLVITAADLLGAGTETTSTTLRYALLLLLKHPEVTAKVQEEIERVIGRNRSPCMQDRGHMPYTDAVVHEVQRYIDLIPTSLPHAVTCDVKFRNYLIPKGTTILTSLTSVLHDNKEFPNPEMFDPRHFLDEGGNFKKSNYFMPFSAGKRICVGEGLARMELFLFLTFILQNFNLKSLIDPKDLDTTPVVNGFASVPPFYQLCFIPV
observationType: IC50 (µM)
# number only, unit µM dropped from output

query: Fill blank: measured IC50 of the compound FC(F)(F)c1nccc(N[C@H]2CC[C@@H](Nc3ccc4nnc(Cl)n4n3)CC2)n1 is ____.
result: 14

###

Target: Voltage-gated inwardly rectifying potassium channel KCNH2 (Homo sapiens)
Sequence (Q12809 whole entry): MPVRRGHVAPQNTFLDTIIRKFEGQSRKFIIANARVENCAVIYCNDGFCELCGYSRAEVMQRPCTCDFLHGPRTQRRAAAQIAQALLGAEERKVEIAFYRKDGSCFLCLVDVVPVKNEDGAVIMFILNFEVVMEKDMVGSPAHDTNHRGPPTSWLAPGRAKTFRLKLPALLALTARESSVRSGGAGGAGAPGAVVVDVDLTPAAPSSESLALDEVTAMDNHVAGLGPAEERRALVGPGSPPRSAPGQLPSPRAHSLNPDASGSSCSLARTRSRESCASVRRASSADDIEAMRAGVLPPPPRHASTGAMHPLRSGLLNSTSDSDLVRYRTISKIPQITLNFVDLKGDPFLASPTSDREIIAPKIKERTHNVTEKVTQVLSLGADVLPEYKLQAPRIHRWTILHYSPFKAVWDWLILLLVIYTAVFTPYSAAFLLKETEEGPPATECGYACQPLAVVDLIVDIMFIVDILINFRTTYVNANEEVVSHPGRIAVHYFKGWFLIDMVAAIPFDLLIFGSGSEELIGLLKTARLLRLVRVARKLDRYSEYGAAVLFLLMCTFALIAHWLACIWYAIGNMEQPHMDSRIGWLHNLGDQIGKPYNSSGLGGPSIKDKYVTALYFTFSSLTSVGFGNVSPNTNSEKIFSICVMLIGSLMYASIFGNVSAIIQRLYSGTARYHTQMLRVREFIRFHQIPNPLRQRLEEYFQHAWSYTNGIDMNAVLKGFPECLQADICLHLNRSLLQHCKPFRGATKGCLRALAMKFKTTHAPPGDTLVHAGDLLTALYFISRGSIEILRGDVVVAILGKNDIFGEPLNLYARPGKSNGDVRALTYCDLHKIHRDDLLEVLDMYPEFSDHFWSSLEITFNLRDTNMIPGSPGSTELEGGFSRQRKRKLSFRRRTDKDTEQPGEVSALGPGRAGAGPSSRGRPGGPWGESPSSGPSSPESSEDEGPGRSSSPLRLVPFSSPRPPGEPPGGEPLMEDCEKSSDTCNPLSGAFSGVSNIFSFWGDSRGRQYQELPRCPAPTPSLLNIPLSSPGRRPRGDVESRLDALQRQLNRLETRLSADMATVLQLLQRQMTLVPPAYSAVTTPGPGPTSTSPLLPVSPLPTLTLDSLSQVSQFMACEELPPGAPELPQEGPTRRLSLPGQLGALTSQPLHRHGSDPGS
observationType: pIC50
The scale used: pIC50 is minus the common logarithm of the concentration in molar units.

query: What pIC50 appears in the records for this molecule with Voltage-gated inwardly rectifying potassium channel KCNH2 (Homo sapiens)? FC(F)(F)c1nccc(N[C@H]2CC[C@@H](Nc3ccc4nnc(Cl)n4n3)CC2)n1
result: 4.62

Hello, the source for this data is ChEMBL document CHEMBL5143527, in case you need it.
